Data credit: patent US20020026053A1

Form field: Biochem EGFR % Inhibition (P.167) (one value per entry).
assay.system: EGFR (Homo sapiens, UniProt P00533)
Construct: endogenous in cells; host or cells: A431 cells (lysate, captured with SUMO1 anti-EGFR antibody)
Sequence (P00533 25-1210): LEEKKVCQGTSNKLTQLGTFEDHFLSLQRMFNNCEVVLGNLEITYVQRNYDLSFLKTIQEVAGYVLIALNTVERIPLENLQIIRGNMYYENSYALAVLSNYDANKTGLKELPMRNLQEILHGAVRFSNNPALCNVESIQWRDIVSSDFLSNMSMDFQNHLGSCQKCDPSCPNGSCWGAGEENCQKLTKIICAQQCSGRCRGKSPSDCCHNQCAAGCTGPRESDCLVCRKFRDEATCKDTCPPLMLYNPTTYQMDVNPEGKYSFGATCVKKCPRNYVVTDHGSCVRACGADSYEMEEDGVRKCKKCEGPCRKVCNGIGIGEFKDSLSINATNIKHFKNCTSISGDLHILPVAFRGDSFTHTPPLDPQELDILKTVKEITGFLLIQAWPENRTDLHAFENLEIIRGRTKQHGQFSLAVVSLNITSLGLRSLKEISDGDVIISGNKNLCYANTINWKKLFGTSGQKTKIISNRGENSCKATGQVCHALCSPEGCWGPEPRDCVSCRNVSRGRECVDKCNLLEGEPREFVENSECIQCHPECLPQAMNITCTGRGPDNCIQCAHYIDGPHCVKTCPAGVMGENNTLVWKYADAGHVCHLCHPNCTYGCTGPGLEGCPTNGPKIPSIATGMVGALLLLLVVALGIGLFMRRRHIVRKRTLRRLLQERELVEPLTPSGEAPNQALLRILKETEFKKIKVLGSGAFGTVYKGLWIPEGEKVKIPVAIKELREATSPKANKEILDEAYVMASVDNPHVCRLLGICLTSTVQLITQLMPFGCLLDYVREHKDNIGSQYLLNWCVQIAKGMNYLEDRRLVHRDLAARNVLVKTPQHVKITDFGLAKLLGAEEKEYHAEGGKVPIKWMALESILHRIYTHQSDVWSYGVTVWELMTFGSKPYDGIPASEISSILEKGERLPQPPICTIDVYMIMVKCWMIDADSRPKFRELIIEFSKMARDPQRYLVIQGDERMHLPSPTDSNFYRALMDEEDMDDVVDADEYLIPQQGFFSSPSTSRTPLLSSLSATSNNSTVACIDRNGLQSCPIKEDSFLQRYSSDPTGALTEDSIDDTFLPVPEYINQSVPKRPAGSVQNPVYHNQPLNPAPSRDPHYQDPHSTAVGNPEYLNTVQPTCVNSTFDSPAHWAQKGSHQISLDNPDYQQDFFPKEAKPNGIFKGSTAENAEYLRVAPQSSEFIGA
test.details: Biochemical EGFR Assay
Parameters: concentration or dose not given beside the values
Write the answer as a number in %, unit excluded.

Example compounds with recorded Biochem EGFR % Inhibition (P.167):
Cc1ccc(C=C2C(=O)Nc3ccc(Br)c(C)c32)cc1 [10736/C05]; 16.8
COc1c(I)cc(C=C2C(=O)Nc3c(Br)cc(Br)c(C)c32)cc1C(C)(C)C [10732/H11]; −15.1
Cc1c(Br)cc(Br)c2c1C(=Cc1ncc[nH]1)C(=O)N2 [10720/H11]; −19.3

Recorded Biochem EGFR % Inhibition (P.167) for CNS(=O)(=O)c1ccc2c(c1)C(=Cc1ccc([N+](=O)[O-])cc1)C(=O)N2 [10734/D06] on EGFR (Homo sapiens, UniProt P00533) was 1.3

Recorded Biochem EGFR % Inhibition (P.167) for O=C1Nc2ccc(S(=O)(=O)N3CCOCC3)cc2C1=Cc1cccc(Cl)c1 [10736/F06] on EGFR (Homo sapiens, UniProt P00533) was 25.1

Recorded Biochem EGFR % Inhibition (P.167) for O=C1Nc2ccc(I)cc2C1=Cc1ccc(Br)s1 [10734/B11] on EGFR (Homo sapiens, UniProt P00533) was 50.9

Recorded Biochem EGFR % Inhibition (P.167) for CC(C)(C)c1ccc(C=C2C(=O)Nc3ccc(S(=O)(=O)N4CCOCC4)cc32)cc1 [10734/F10] on EGFR (Homo sapiens, UniProt P00533) was −8.3

Recorded Biochem EGFR % Inhibition (P.167) for Cc1cc(C=C2C(=O)Nc3c(Br)cc(Br)c(C)c32)cc(C)c1OCc1ccccc1 [10733/H07] on EGFR (Homo sapiens, UniProt P00533) was −6.2

Recorded Biochem EGFR % Inhibition (P.167) for Cc1c(Br)cc(Br)c2c1C(=Cc1cc3ccccc3nc1Cl)C(=O)N2 [10730/H08] on EGFR (Homo sapiens, UniProt P00533) was −15.8

###

assay.system: EGFR (Homo sapiens, UniProt P00533)
Construct: endogenous in cells; host or cells: A431 cells (lysate, captured with SUMO1 anti-EGFR antibody)
test.details: Biochemical EGFR Assay
Design: concentration or dose not given beside the values
Experimental: This assay measures the in vitro kinase activity of EGFR using ELISA. 1. Corning 96-well Elisa plates (Corning Catalog No. 25805-96). 2. SUMO1 monoclonal anti-EGFR antibody (Biochemistry Lab, SUGEN, Inc.). 3. PBS (Dulbecco's Phosphate-Buffered Saline, Gibco Catalog No. 450-1300EB). 6. […] Mix first two ingredients in about 900 ml dH2O, adjust pH to 4.0 with phosphoric acid. […] The solution should be kept in the dark at 4° C. until ready to use. […] 22. Read assay on Dynatech MR7000 ELISA reader. […]
Form field: Biochem EGFR % Inhibition (P.167) (one value per entry).
Write the answer as a number in %, unit excluded.

Example molecules with recorded Biochem EGFR % Inhibition (P.167):
CC(=O)Oc1ccc(C=C2C(=O)Nc3c(Br)cc(Br)c(C)c32)cc1OC(C)=O; −17.3
Cc1cc(C=C2C(=O)Nc3c(Br)cc(Br)c(C)c32)cc(C)c1O; −24.8
O=C1Nc2ccc(CCCl)cc2C1=Cc1cccc2ccccc12; 19.8

For this molecule ( "Cc1c(Br)cc(Br)c2c1C(=Cc1c[nH]c(=O)[nH]c1=O)C(=O)N2" ), measured Biochem EGFR % Inhibition (P.167) is −0.5

For this molecule ( "Cc1c(Br)cc(Br)c2c1C(=Cc1ccc(Br)o1)C(=O)N2" ), measured Biochem EGFR % Inhibition (P.167) is 2.2
